Target: Cholinesterase (Equus caballus)
Sequence (P81908 whole entry): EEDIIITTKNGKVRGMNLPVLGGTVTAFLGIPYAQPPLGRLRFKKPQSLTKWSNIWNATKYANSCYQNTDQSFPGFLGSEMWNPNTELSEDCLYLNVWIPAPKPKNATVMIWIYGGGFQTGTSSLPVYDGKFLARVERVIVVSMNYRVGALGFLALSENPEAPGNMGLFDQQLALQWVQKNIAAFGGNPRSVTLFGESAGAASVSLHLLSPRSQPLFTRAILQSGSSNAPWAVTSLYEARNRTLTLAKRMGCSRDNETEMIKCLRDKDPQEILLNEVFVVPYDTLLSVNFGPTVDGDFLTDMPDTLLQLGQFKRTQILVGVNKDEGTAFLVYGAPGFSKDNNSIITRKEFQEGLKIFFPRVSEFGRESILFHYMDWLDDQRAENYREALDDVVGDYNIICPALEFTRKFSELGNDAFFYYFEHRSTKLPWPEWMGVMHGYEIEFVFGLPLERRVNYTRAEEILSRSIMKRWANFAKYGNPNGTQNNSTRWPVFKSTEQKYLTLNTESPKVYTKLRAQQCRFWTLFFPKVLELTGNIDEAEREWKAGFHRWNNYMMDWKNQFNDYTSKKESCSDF
Experiment: Inhibition of horse serum BuChE using butyrylthiocholine chloride as substrate by spectrophotometric based Ellman's method
Measurement kind: IC50

>>> print(df.to_string())
                                smiles_text  measurement_kind  reported
0  C[C@@H]([C@H]1CC[C@@]2(C)[C@@H]3CC[C@@H]4C(=CC3=CC[C@]12C)C=C[C@H](NC(=O)c1ccccc1)C4(C)C)N(C)C              IC50    1.7 µM
1  C[C@@H]([C@H]1[C@H](O)C[C@@]2(C)[C@@H]3CC[C@H]4C(C)(C)C(=O)C=C[C@@]45C[C@@]35CC[C@]12C)N(C)C              IC50    1.1 µM

###

Biological target: Cholinesterase (Homo sapiens)
Sequence (P06276 whole entry): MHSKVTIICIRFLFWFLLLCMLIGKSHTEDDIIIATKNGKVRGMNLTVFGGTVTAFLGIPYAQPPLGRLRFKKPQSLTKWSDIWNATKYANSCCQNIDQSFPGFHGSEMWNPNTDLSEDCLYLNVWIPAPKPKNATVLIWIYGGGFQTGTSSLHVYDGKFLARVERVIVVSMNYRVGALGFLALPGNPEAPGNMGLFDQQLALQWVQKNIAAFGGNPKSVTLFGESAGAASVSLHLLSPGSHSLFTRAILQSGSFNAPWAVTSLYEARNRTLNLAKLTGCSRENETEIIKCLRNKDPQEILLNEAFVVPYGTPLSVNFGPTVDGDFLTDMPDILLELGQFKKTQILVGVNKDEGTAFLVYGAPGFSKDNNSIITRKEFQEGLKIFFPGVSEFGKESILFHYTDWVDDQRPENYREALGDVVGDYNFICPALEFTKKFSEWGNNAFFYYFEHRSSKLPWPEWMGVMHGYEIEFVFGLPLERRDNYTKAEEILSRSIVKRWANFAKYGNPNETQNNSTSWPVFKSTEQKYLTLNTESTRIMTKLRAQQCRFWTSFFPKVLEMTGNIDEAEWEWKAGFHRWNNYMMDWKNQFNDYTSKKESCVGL
Assay: Inhibition of human BuChE using butyrylthiocholine iodide as substrate at 100 uM measured for 1 min by spectrophotometric based Ellman's method relative to control
Listing of entries alongside the reported inhibition.
Measurement kind: inhibition (%)

                                smiles_text                   study_system  reported
0  CCC(=O)O[C@@H]1C[N@@]2Cc3c(cc4c(c3OC)OCO4)[C@@]13C=C[C@H](OC)C[C@H]23  Cholinesterase (Homo sapiens)        16
1  CCOc1cc(OCC)cc(C(=O)O[C@@H]2C[N@@]3Cc4c(cc5c(c4OC)OCO5)[C@@]24C=C[C@H](OC)C[C@H]34)c1  Cholinesterase (Homo sapiens)        42
2  COc1c2c(cc3c1OCO3)[C@]13C=C[C@H](OC)C[C@@H]1[N@](C2)C[C@H]3OC(=O)c1ccccc1[N+](=O)[O-]  Cholinesterase (Homo sapiens)        97

###

Assay: Effective permeability of the compound at pH 7.4 at 100 uM measured after 3 to 6 hrs by PAMPA assay
Format: ADME
Conditions: read-out: Peff
Measurement kind: Papp at 100 µM

                                smiles_text  measurement_kind       reported
0  COc1ccccc1C(=O)O[C@@H]1CN2Cc3c(cc4c(c3OC)OCO4)[C@@]13C=C[C@H](OC)C[C@H]23    Papp at 100 µM  12 ×10⁻⁶ cm/s
1  COc1c2c(cc3c1OCO3)[C@]13C=C[C@H](OC)C[C@@H]1N(C2)C[C@H]3OC(=O)c1ccccc1    Papp at 100 µM  12 ×10⁻⁶ cm/s
2  COc1c2c(cc3c1OCO3)[C@]13C=C[C@H](OC)C[C@@H]1N(C2)C[C@H]3OC(=O)c1cccc2ccccc12    Papp at 100 µM   9 ×10⁻⁶ cm/s
3  COc1c2c(cc3c1OCO3)[C@]13C=C[C@H](OC)C[C@@H]1N(C2)C[C@H]3OC(=O)c1cccc(C)c1    Papp at 100 µM   8 ×10⁻⁶ cm/s
4  COc1c2c(cc3c1OCO3)[C@]13C=C[C@H](OC)C[C@@H]1[N@](C2)C[C@H]3OC(=O)c1ccccc1C    Papp at 100 µM  19 ×10⁻⁶ cm/s
5  COc1c2c(cc3c1OCO3)[C@]13C=C[C@H](OC)C[C@@H]1N(C2)C[C@H]3OC(=O)c1ccccc1[N+](=O)[O-]    Papp at 100 µM  12 ×10⁻⁶ cm/s
